Listed here are sequences together with their documented protein stability index.
test: protein stability index of a GFP-peptide fusion (GPS, HEK-293T) (PSI 1-6); higher = more stable; conditions: treatment: DMSO; c terminus: native;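 further: 24-mer peptide tiles fused after GFP, lentivirally expressed, FACS-sorted into six equal bins by GFP/DsRed ratio, decoded by Illumina sequencing, PSI is the read-weighted mean bin number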
The answer should be a number; do not append a unit.

Guide cases for protein stability index, answers given:
Item under review: CDPSRIYKPQTRLKRKQPVRKRQ [DFFB] . Reported protein stability index?
3.96

Continue with DNAVQGLRRHEILQWVLQTDSQQ [LRRC59]
3.37

Continue with DLVPKQAIQVQEADEAGWGGSGG [DLX1]
2.96

Continue with PDVTQLTPPSHDLTDNIFPRLVC [ANKRD17]
2.45

Continue with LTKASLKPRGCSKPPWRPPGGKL [SPACA9]
2.55

Continue with TTDDTTAMASASSSATGSFSYPE [MAGEA10]
5.28

Next:
Item under review: AIHSSDEGEDQAGDEDEDDEWDD [WAS] . Reported protein stability index?
5.06

Hey, just so you know, these numbers are from the supplement of paper PMC10567573.
